# experiment-description: chemical genetic growth profiling, strain panel (AID 1159580);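 also: tested at 20 µM; growth read once vehicle control cultures reached saturation at 30 °C; 1 = growth at the plate median or of vehicle wells; lower values mean less growth of the strain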
# particulars: S. cerevisiae deletion strains, growth OD, locus YBR021W, strain FUR4, hits give low values
Out of some 5,500 compounds screened, about 2,000 (36%) were called active. Roughly 18% stayed inconclusive and do not appear here. The list shows a part of the results.
normalized growth under 1 gets YES, anything at or over 1 gets NO.

{"compound": "CCN1CCCC(OC(=O)C(c2ccccc2)c2ccccc2)C1 (stereo not drawn)", "assigned-class": "NO"}
{"compound": "CCCCC[C@H]1C(=O)O[C@H](C)[C@H](NC(=O)c2cccc(NC=O)c2O)C(=O)O[C@@H](C)[C@@H]1OC(=O)CC(C)C", "assigned-class": "YES"}
{"compound": "Oc1cc(O)c2c(c1)O[C@H](c1cc(O)c(O)c(O)c1)[C@H](O)C2", "assigned-class": "NO"}
{"compound": "CN(C)CCOC(c1ccc(Cl)cc1)c1ccccn1 (stereo not drawn)", "assigned-class": "YES"}
{"compound": "CC(=O)O[C@H]1C[C@@H](OC(C)=O)C(C)(C)C2CC(=O)[C@]3(C)C(CC[C@@]4(C)[C@H](C(=O)O)OC(=O)C5OC543)[C@]21C (stereo partly drawn)", "assigned-class": "NO"}
{"compound": "c1ccc2c(c1)sc1ccccc12", "assigned-class": "NO"}
{"compound": "Cc1[nH]c2ccccc2c1CN(C)C", "assigned-class": "YES"}
{"compound": "c1ccc2c(c1)CCCC2C1=NCCN1 (stereo not drawn)", "assigned-class": "NO"}
{"compound": "CC[C@@]1(O)C[C@H](O[C@H]2C[C@H](N(C)C)[C@H](O)[C@H](C)O2)c2c(cc3c(c2O)C(=O)c2c(O)cccc2C3=O)[C@H]1C(=O)OC", "assigned-class": "NO"}
{"compound": "Cc1ccccc1C(OCCN(C)C)c1ccccc1 (stereo not drawn)", "assigned-class": "YES"}
{"compound": "COc1cc([C@@H]2c3cc4c(cc3C(OC3O[C@@H]5COC(C)O[C@H]5[C@H](O)[C@H]3O)C3COC(=O)[C@@H]32)OCO4)cc(OC)c1O (stereo partly drawn)", "assigned-class": "YES"}
{"compound": "CC[C@@]1(O)C[C@H](O)c2c(cc3c(c2O)C(=O)c2c(O)ccc(O)c2C3=O)[C@H]1C(=O)OC", "assigned-class": "NO"}
{"compound": "Oc1ccc2c(c1)O[C@H](c1ccc(O)c(O)c1)[C@@H](O)C2", "assigned-class": "NO"}
{"compound": "CNC(=O)O/N=C(\\C)SC", "assigned-class": "NO"}
{"compound": "C=CCc1ccc(O)c(OC)c1", "assigned-class": "NO"}
{"compound": "CC1CCc2cc(F)cc3c(=O)c(C(=O)O)cn1c23 (stereo not drawn)", "assigned-class": "YES"}

----------
# experiment-description: chemical genetic growth profiling, strain panel (AID 1159580)
# particulars: S. cerevisiae deletion strains, growth OD, locus YGR229C, strain SMI1, hits give low values
Among all 5,500 compounds or so, about 2,000 (36%) were called active. Not shown: some 18% with an inconclusive outcome. The list shows a part of the results.
property-measured: normalized growth

{"molecule": "CCOC(=O)Cc1csc(N=CNO)n1", "property-measured": "normalized growth", "reported-value": 0.997}
{"molecule": "CCc1nnc(N=CNO)s1", "property-measured": "normalized growth", "reported-value": 0.992}
{"molecule": "NC(Cc1cccc(-c2ccccc2CP(=O)(O)O)c1)C(=O)O (stereo not given)", "property-measured": "normalized growth", "reported-value": 1.01}
{"molecule": "CC(=O)Oc1cc(OC(C)=O)c2c(c1)O[C@H](c1ccc(OC(C)=O)c(OC(C)=O)c1)[C@@H](OC(C)=O)C2", "property-measured": "normalized growth", "reported-value": 0.992}
{"molecule": "COc1cc(OC)c2c(c1)O[C@H](c1cc(OC)c(OC)c(OC)c1)[C@H](OC(=O)c1cc(OC)c(OC)c(OC)c1)C2", "property-measured": "normalized growth", "reported-value": 0.993}

----------
# experiment-description: chemical genetic growth profiling, strain panel (AID 1159580);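 also: tested at 20 µM; growth read once vehicle control cultures reached saturation at 30 °C; 1 = growth at the plate median or of vehicle wells; lower values mean less growth of the strain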
# particulars: S. cerevisiae deletion strains, growth OD, locus YDL074C, strain BRE1
Out of some 5,500 compounds screened, about 2,000 (36%) were called active. Not shown: some 18% with an inconclusive outcome. Rule as the data show it: active = normalized growth mostly below about 0.91 (no sharp cut-off); inconclusive = no clear call, values can overlap the other calls; inactive = mostly above about 0.92. The list shows a part of the results.
Labels: active, inactive

{"compound-structure-string": "NCCCS(=O)(=O)O", "assigned-class": "inactive"}
{"compound-structure-string": "COC(=O)/C=C/C(C)=C/C=C/C(C)=C/C=C/C=C(C)/C=C/C=C(C)/C=C/C(=O)O", "assigned-class": "inactive"}
{"compound-structure-string": "CN1CC(CO)=C[C@@H]2c3cccc4[nH]cc(c34)C[C@H]21", "assigned-class": "inactive"}
{"compound-structure-string": "O=C(O[C@@H]1Cc2c(O)cc(O)cc2O[C@@H]1c1cc(O)c(O)c(O)c1)c1cc(O)c(O)c(O)c1", "assigned-class": "active"}
{"compound-structure-string": "O=C(Oc1cc(O)cc2c1C[C@@H](OC(=O)c1cc(O)c(O)c(O)c1)[C@@H](c1cc(O)c(O)c(O)c1)O2)c1cc(O)c(O)c(O)c1", "assigned-class": "active"}
{"compound-structure-string": "NS(=O)(=O)c1cc2c(cc1Cl)NC=NS2(=O)=O", "assigned-class": "inactive"}
{"compound-structure-string": "CN1CC(=O)N=C1N", "assigned-class": "inactive"}
{"compound-structure-string": "O=C(O)/C=C/c1ccc(O)c(O)c1", "assigned-class": "inactive"}
{"compound-structure-string": "O=C(O)c1cc2cc(F)ccc2[nH]1", "assigned-class": "inactive"}
{"compound-structure-string": "O=C(O[C@@H]1Cc2c(O)cc(O)cc2O[C@@H]1c1ccc(O)c(O)c1)c1cc(O)c(O)c(O)c1", "assigned-class": "inactive"}

----------
# experiment-description: chemical genetic growth profiling, strain panel (AID 1159580);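 also: tested at 20 µM; growth read once vehicle control cultures reached saturation at 30 °C; 1 = growth at the plate median or of vehicle wells; lower values mean less growth of the strain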
# particulars: S. cerevisiae deletion strains, growth OD, locus YJL187C, strain SWE1, hits give low values
Hit rate of the full screen: of about 5,500 compounds, about 2,000 (36%) were called active. Roughly 18% stayed inconclusive and do not appear here. The list shows a part of the results.
Listed next: entries and their corresponding normalized growth.
property-measured: normalized growth

{"compound": "CCCCNC(=O)NS(=O)(=O)c1ccc(C)cc1", "reported-value": "1.02 (inactive)"}
{"compound": "COc1cc2nc(N(C)CCCNC(=O)C3CCCO3)nc(N)c2cc1OC (centres undefined)", "reported-value": "0.999 (inactive)"}
{"compound": "O=C(NC(=O)c1ccccc1Cl)Nc1ccc(OC(F)(F)F)cc1", "reported-value": "1.03 (inactive)"}
{"compound": "CN1C2CCC1CC(OC(c1ccccc1)c1ccccc1)C2 (centres undefined)", "reported-value": "0.989 (inactive)"}
{"compound": "CCOC(=O)CNc1ccc(F)cc1", "reported-value": "1 (inactive)"}
{"compound": "CCC[C@H](N[C@@H](C)C(=O)N1[C@H](C(=O)O)C[C@@H]2CCCC[C@@H]21)C(=O)OCC", "reported-value": "1.01 (inactive)"}
{"compound": "CC[C@]1(O)CC2CN(CCc3c([nH]c4ccccc34)[C@@](C(=O)OC)(c3cc4c(cc3OC)N(C)[C@H]3[C@@](O)(C(=O)OC)[C@H](OC(C)=O)[C@]5(CC)C=CCN6CC[C@]43[C@@H]65)C2)C1 (some centres undefined)", "reported-value": "0.974 (inactive)"}
{"compound": "COc1ccc([C@H]2Oc3c(I)c(OC)cc(OC)c3C[C@@H]2O)cc1OC", "reported-value": "1.01 (inactive)"}
{"compound": "N#CCCN(CC1CCCO1)C(=S)Nc1cc(C(F)(F)F)cc(C(F)(F)F)c1 (centres undefined)", "reported-value": "1 (inactive)"}

----------
# experiment-description: chemical genetic growth profiling, strain panel (AID 1159580);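 also: tested at 20 µM; growth read once vehicle control cultures reached saturation at 30 °C; 1 = growth at the plate median or of vehicle wells; lower values mean less growth of the strain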
# particulars: S. cerevisiae deletion strains, growth OD, locus YJR016C, strain ILV3, hits give low values
Screen size: about 5,500 compounds; about 2,000 (36%) were called active. Another 18% or so got no clear call; they are omitted. Some of the results follow.
property-measured: normalized growth

{"compound": "COc1ccc(C(CC(=O)c2ccccc2)Sc2ccccc2N)cc1OC (stereo unspecified)", "property-measured": "normalized growth", "reported-value": 0.985}
{"compound": "Cc1ccc(Nc2ccnc3cc(Cl)ccc23)cc1F", "property-measured": "normalized growth", "reported-value": 0.998}
{"compound": "N/C(CCSc1ccc(Cl)cc1)=N/OC(=O)Nc1ccc(Cl)cc1", "property-measured": "normalized growth", "reported-value": 0.981}
{"compound": "Cc1nn(C)c(C(=O)Sc2ccc(OC(F)(F)F)cc2)c1[N+](=O)[O-]", "property-measured": "normalized growth", "reported-value": 0.977}
{"compound": "Cc1ccc(S(=O)(=O)NC(=O)Nc2ccc(Sc3ccccc3)nc2Sc2ccccc2)cc1", "property-measured": "normalized growth", "reported-value": 0.98}
{"compound": "O=[N+]([O-])c1ccc(-c2noc(-c3ccno3)n2)o1", "property-measured": "normalized growth", "reported-value": 0.0915}
{"compound": "Fc1cc(I)ccc1Nc1ccnc2cc(Cl)ccc12", "property-measured": "normalized growth", "reported-value": 0.975}
{"compound": "Oc1c(Cl)cc(Cl)cc1C=Nc1nc(-c2ccc3ccccc3c2)cs1", "property-measured": "normalized growth", "reported-value": 0.962}
{"compound": "CC1(C)CC(=O)C=C(Sc2nc3ccccc3o2)C1", "property-measured": "normalized growth", "reported-value": 0.952}
{"compound": "O=C(Oc1cccc2[nH]ccc12)c1ccc(C(F)(F)F)cc1", "property-measured": "normalized growth", "reported-value": 0.966}
{"compound": "Cc1cc(C(=O)NNS(=O)(=O)c2ccc(F)c(Cl)c2)nn1-c1c(Cl)cc(Cl)cc1Cl", "property-measured": "normalized growth", "reported-value": 0.982}
